Reference source: the supplement of paper PMC3334620

# system_under_test: Cad1 (UniProt P24813)
# Sequence: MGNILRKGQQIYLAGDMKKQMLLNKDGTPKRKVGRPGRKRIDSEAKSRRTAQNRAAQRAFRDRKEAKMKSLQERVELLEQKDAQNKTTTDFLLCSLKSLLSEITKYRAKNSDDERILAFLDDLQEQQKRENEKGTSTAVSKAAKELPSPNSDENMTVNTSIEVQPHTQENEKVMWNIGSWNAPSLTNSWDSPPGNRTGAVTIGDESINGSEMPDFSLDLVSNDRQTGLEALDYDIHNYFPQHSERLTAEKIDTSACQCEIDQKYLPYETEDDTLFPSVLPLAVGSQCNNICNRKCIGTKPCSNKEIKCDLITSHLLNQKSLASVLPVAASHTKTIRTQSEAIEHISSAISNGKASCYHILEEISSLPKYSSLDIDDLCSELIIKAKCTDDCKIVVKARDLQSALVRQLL
# assay_overview: PBM E-score (8-mer binding enrichment) (E-score (-0.5 to 0.5)); higher = stronger / more preferred TF binding
# details: protein concentration: 100 nM; construct: GST-full length
In all, about 33,000 sequences were measured (“E-score (-0.5 to 0.5)”: median about -0.0014, highest 2% from about 0.25 on). What follows is part of a selection rich in the highest values, with near analogues and random picks from the rest.
Reported PBM E-score values are given for each entry in this list.

item_sequence	system_under_test	PBM E-score
ACGGCGTA	Cad1 (UniProt P24813)	0.0105
GTTATATA	Cad1 (UniProt P24813)	0.232
ATTATGTC	Cad1 (UniProt P24813)	0.181
GACTGATC	Cad1 (UniProt P24813)	-0.075
CTTGTACA	Cad1 (UniProt P24813)	-0.0604
ATTTATAC	Cad1 (UniProt P24813)	0.226
GTTTATGA	Cad1 (UniProt P24813)	0.142
CCAGTTTC	Cad1 (UniProt P24813)	-0.155
GTTTATCA	Cad1 (UniProt P24813)	0.173
CGACCGAG	Cad1 (UniProt P24813)	-0.0641
CAATTTCA	Cad1 (UniProt P24813)	0.0182
ACATTCCG	Cad1 (UniProt P24813)	0.05
AATCGACA	Cad1 (UniProt P24813)	0.304
AATTAATC	Cad1 (UniProt P24813)	0.227
ACTTAATA	Cad1 (UniProt P24813)	0.186
GTTTATAA	Cad1 (UniProt P24813)	0.264
CGCGGATA	Cad1 (UniProt P24813)	0.258
AACTTGAC	Cad1 (UniProt P24813)	0.0523
ACATACGA	Cad1 (UniProt P24813)	0.117
ACTATATC	Cad1 (UniProt P24813)	0.109
GTTTAATA	Cad1 (UniProt P24813)	0.189
AGTAGATA	Cad1 (UniProt P24813)	0.282
AAGAAGCG	Cad1 (UniProt P24813)	-0.184
GCTGAGCC	Cad1 (UniProt P24813)	-0.119
ATTATGTG	Cad1 (UniProt P24813)	0.25
ATGGGGGC	Cad1 (UniProt P24813)	-0.349
AGAAAGCC	Cad1 (UniProt P24813)	-0.051
CTAGTTGC	Cad1 (UniProt P24813)	0.0214
ATTTGATG	Cad1 (UniProt P24813)	0.148
ATTTAATC	Cad1 (UniProt P24813)	0.285
ATTTAATG	Cad1 (UniProt P24813)	0.213
ATTGTACA	Cad1 (UniProt P24813)	0.106
AGCGGATA	Cad1 (UniProt P24813)	-0.0234
CGGAAACG	Cad1 (UniProt P24813)	-0.0175
CGCGGATC	Cad1 (UniProt P24813)	0.0644
CCCGCGTC	Cad1 (UniProt P24813)	0.0369
CTACCTGA	Cad1 (UniProt P24813)	-0.0406
AGGGCACA	Cad1 (UniProt P24813)	-0.116
GTTGTACA	Cad1 (UniProt P24813)	0.286
CTTTAATC	Cad1 (UniProt P24813)	-0.00133
CGTAGATA	Cad1 (UniProt P24813)	0.113
ATTTAATA	Cad1 (UniProt P24813)	0.316
AGTAGATC	Cad1 (UniProt P24813)	-0.191
GGGTCTAC	Cad1 (UniProt P24813)	-0.0723
AAACGTAC	Cad1 (UniProt P24813)	0.0592
CTTATATA	Cad1 (UniProt P24813)	0.331
